Numbers sourced from the RNAGym collection of RNA variant scans (doi:10.1101/gr.219683.116).

Below, each of the variants is paired with its reported exon inclusion enrichment index value.
B1: mRNA-splicing (parent)
chain: AGUUGCUGCUGGGAGCUCCAGCACAGUGAAAUGGACAGAAGGGCAGAGCAA

# Variants of: B1
# assay-text: exon inclusion enrichment index; higher = more inclusion; WT1 exon 5 minigene, HEK293
Please reply with the number alone, leaving off any unit.

Some solved cases for reference:
>>> obs_value("G5A C6U U7A G8U C9A C18A")
0.017
>>> obs_value("G5C C6A U7C G8A U10A U32G G33C")
0.0862
>>> obs_value("G5C C6A U7C G8A U10A U27A G28A")
0.112
>>> obs_value("G5C C6A U7C G8A U10A G11U G12C")
0.543
>>> obs_value("G5A C6G U7G C9G U10A")
0.00648

Give the reported exon inclusion enrichment index for this variant. C6A U7C C9A U10C G13A A14U
3.22

Give the reported exon inclusion enrichment index for this variant. A39U A40G
0.0141

Give the reported exon inclusion enrichment index for this variant. G5A C6G U7G C9A G11U
0.00542

Give the reported exon inclusion enrichment index for this variant. G5C C6U G8C C9U U10C C16G U17A
2.4

Give the reported exon inclusion enrichment index for this variant. G5C C6A U7C G8A U10A G42U
0.154

Give the reported exon inclusion enrichment index for this variant. G5C C6G U7C U10C G46A
3.39

Give the reported exon inclusion enrichment index for this variant. C6A U7C C9A U10C G21A C22A
2.06

Give the reported exon inclusion enrichment index for this variant. G5C C6G U7C U10C G11U G12A
1.11

Give the reported exon inclusion enrichment index for this variant. G5C C6A U7C G8A U10A G12C G13A
0.181

Give the reported exon inclusion enrichment index for this variant. G2A U3C G5A U7C G8A U10C
2.1
